subject of test: pooled human IgG
readout label: Enzyme Activity Endpoint Assay (purified): IgG (ng/µL)
Use ng/µL as the unit, but write only the number.

protein: PRT-166 (protein) MANQEIRYSEVTPYHVTSVWTKGVTPPANFTQGEDVFHAPYVANQGWYDITKAFDGGDDLLCGAATAGNMLHWWFDQNKDQIKRYLEEHPEKQKINFNGEQMFDVKEAIDTKNSQTNSELFNYFKEKAFPYLSTKHLGVFPDHVIDMFINGYRLSLTNHGPTPVKEGSKDPRGGIFDAVFTRGDQSKLLTSRHDFKEKNLKEISDLIKKELTEGKALGLSHTYANVRINHVINLWGADFDSNGNLKAIYVTDSDSNASIGMKKYFVGVNSAGKVAISAKEIKEDNIGAQVLGLFTLSTGQDSWNQTN
recorded number: 0

Given item PRT-155 (protein) MANQEIRYSEVTPYHVTSVWTDGVTPPANFTQGEDVFHAPYVANQGWYDITKTFNGKDDLLCGAATAGNMLHWWFDQNSTQIEAYLKKHPEKQKINFNGEQMFDVKEAIDTKNHQLDSKLFEYFKEKAFPYLSTKHLGVFPDHVIDMFINGYRLSLTNHGPTPVKEGSKDPRGGIFDAVFTRGDQSKLLTSRHDFKEKNLKEISDLIKKELTEGKALGLSHTYANVRINHVINLWGADFDSNGNLKAIYVTDSDSNASIGMKKYFVGVNSAGKVAISAKEIKEDNIGAQVLGLFTLSTGKKSWEKTN , the value recorded as its Enzyme Activity Endpoint Assay (purified): IgG is 0
